system: α-amylase (Bacillus licheniformis, UniProt P06278)
Sequence (P06278 30-512): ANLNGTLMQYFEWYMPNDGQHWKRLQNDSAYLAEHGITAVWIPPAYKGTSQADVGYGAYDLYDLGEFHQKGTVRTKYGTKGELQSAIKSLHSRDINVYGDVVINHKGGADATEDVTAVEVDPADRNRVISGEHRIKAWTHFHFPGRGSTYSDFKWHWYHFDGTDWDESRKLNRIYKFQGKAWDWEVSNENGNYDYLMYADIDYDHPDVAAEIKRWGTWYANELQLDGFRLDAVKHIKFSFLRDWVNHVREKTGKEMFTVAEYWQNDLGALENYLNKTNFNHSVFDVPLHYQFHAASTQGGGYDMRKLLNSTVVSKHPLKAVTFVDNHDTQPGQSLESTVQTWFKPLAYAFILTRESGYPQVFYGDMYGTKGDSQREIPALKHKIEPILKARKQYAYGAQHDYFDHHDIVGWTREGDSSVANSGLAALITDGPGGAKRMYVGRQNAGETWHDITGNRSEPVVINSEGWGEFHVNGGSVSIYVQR
measured_attribute: pIC50
The scale used: pIC50 is minus the common logarithm of the concentration in molar units.

Before answering, review these 2 worked examples.
> print(dat)
                                   molecule  observed
1  Cc1ccc(C(C)C)cc1O [Carvacrol, carvacrol]      2.42
2  CC1CCC(C(C)C)C(O)C1 (stereo not drawn) [Menthol, menthol]      2.52

Query: Requested field: pIC50. Item: CCCCCCCCCCCCCCCCCCCCCCC [Tricosane, tricosane]
Reply: 2.93

----------
system: elastase (Sus scrofa)
Sequence (P00772 27-266): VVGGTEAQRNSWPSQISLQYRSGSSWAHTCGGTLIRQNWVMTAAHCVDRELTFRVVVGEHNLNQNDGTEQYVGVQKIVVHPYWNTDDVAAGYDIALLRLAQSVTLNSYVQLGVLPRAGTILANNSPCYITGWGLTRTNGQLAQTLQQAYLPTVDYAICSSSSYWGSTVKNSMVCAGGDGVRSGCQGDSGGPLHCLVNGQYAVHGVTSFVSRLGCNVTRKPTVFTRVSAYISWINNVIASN
protocol_summary: Elastase inhibitory assay
Assay type: biochemical
stated_conditions: Elastase IC50, N-succinyl-Ala-Ala-p-nitroanilide, 410 nm
// reported IC50 for each item listed
Respond numerically; units are µM and should not be typed.

> print(dat)
                                 compound  observed
1  CC1CCC(C(C)C)C(O)C1 (centres unmarked)       717

Continue with the next compound.
Query: Consider the compound shown here: Cc1ccc(C(C)C)cc1O What is its recorded IC50?
Reply: 830
